assay: Acute in vivo toxicity in mice, intraperitoneal injection; settings: 120 mg/kg intraperitoneal, in 10% w/v hydroxypropyl-β-cyclodextrin in 0.9% w/v saline, 5 mice
Readings of Mice Surviving on Day 7 for the listed compounds
Give the number first and the unit second.

Known results for compounds:
* NCCNC(=O)c1cc(-c2c[nH]c3ccc(Br)cc23)nc2cc(Cl)ccc12 | 0%
* NCCNC(=O)c1cc(-c2c[nH]c3ccc(Br)cc23)nc2cc(Cl)c(C#CCN3CCCCC3)cc12 | 0%

Note: attention shifts to another entry.
Which measured Mice Surviving on Day 7 value corresponds to Cn1cc(-c2cc(C(=O)NCCN)c3ccc(Cl)cc3n2)c2cc(Br)ccc21 ?
100%

----------
system: methicillin-resistant Staphylococcus aureus (MRSA); assay: Determination of MIC values (BHI broth, 96 well microtiter plate); format: cell-based; conditions: Staphylococcus aureus, MRSA; BHI broth, overnight 37° C.; read-out: MIC MRSA
Readings of MIC for the listed molecules

Known results for molecules:
• NCC1CCCC(CNC(=O)c2cc(-c3c[nH]c4ccc(Br)cc34)nc3cc(F)ccc23)C1 (stereo not drawn) = < 7 µg/mL
• Cn1cc(-c2cc(C(=O)NCCN)c3cc(C#CCNCCc4ccccc4)ccc3n2)c2cc(Br)ccc21 = < 7 µg/mL

Note: attention shifts to another entry.
Which measured MIC value corresponds to Cn1cc(-c2cc(C(=O)NCc3ccc(CN)cc3)c3cc(C#CCNCCc4ccccc4)ccc3n2)c2cc(Br)ccc21 ?
< 7 µg/mL

----------
system: methicillin-resistant Staphylococcus aureus (MRSA); experiment: Determination of MIC values (BHI broth, 96 well microtiter plate); assay type: cell-based; conditions: Staphylococcus aureus, MRSA; BHI broth, overnight 37° C.; read-out: MIC MRSA
Readings of MIC for the listed molecules

• O=C(O)c1cc(-c2c[nH]c3ccc(Br)cc23)nc2ccc(C#CCNC3CCCCC3)cc12 [Example 233] = > 25 µg/mL
• Clc1cc(-c2c(-c3ccccc3)[nH]c3ccccc23)nc2ccccc12 [Example 353] = > 25 µg/mL
• Cn1c(-c2ccccc2)c(-c2ccc3cc(Cl)ccc3n2)c2ccccc21 [Example 220] = < 25 µg/mL
• NCc1cccc(CNC(=O)c2cc(-c3c[nH]c4ccc(Br)cc34)nc3cc(I)ccc23)c1 [Example 252] = < 7 µg/mL
• NCc1cccc(CNC(=O)c2cc(-c3cc4cc(Cl)ccc4[nH]3)nc3cc(I)ccc23)c1 [Example 311] = > 25 µg/mL
• NCC1CCCC(CNC(=O)c2cc(-c3c[nH]c4ccc(Br)cc34)nc3cc(I)ccc23)C1 (stereo not shown) [Example 250] = < 7 µg/mL

Which measured MIC value corresponds to CCOc1cc(-c2cn(C(=O)OC(C)(C)C)c3ccc(Br)cc23)nc2ccc(I)cc12 [Example 361] ?
> 25 µg/mL

Which measured MIC value corresponds to NCc1cc(-c2c[nH]c3ccc(Cl)cc23)nc2ccccc12 [Example 372] ?
< 7 µg/mL

Which measured MIC value corresponds to NCC1CCCC(CNC(=O)c2cc(-c3c[nH]c4ccc(Br)cc34)nc3cc(Cl)c(I)cc23)C1 (stereo not shown) [Example 245] ?
< 7 µg/mL

Which measured MIC value corresponds to NCCNC(=O)c1cc(-c2c[nH]c3ccc(Br)cc23)nc2cc(F)ccc12 [Example 321] ?
< 7 µg/mL

Which measured MIC value corresponds to Cn1cc(-c2cc(C(=O)NC3CCC(N)CC3)c3ccc(I)cc3n2)c2cc(Br)ccc21 (stereo not shown) [Example 333] ?
< 7 µg/mL

Which measured MIC value corresponds to Clc1ccc2nc(-c3c[nH]c4c(Br)cccc34)ccc2c1 [Example 355] ?
> 25 µg/mL

Which measured MIC value corresponds to Cn1cc(-c2cc(C(=O)NC3CCC(N)CC3)c3cc(I)ccc3n2)c2cc(Br)ccc21 (stereo not shown) [Example 360] ?
< 7 µg/mL

----------
Test system: Streptococcus pneumoniae
Experiment: Determination of MIC values (BHI broth, 96 well microtiter plate)
Assay type: cell-based
Conditions: Streptococcus pneumoniae; S. pneu; BHI broth, overnight 37° C.; read-out: MIC S. pneu
Description: Stock solutions of compounds are prepared with a concentration of 10 mg/mL. These solutions are then diluted 1:4 to give a concentration of 2.5 mg/mL. The compounds are then serially diluted 1:2 for 6 iterations. The concentrations made for each compound are 2.5, 1.25, 0.625, 0.3125, 0.156, 0.078, and 0.039 mg/mL. A control sample (no compound) is run along with each compound tested. All dilutions are made in DMSO. […]
Readings of MIC for the listed molecules

Known results for molecules:
* Cn1cc(-c2ccc3cc(Cl)ccc3n2)c2c(F)cccc21 | > 25 µg/mL
* Cn1cc(-c2cc(C(=O)NCCN)c3cc(C#CCN4CCCCC4)ccc3n2)c2cc(Br)ccc21 | < 7 µg/mL
* O=C(O)c1cc(-c2c[nH]c3ccc(Br)cc23)nc2ccc(C#CCNC3CCCCC3)cc12 | < 25 µg/mL
* NCc1cccc(CNC(=O)c2cc(-c3c[nH]c4ccc(Br)cc34)nc3cc(Cl)c(I)cc23)c1 | < 7 µg/mL
* Cn1cc(-c2cc(C(=O)NCc3ccc(CN)cc3)c3cc(C#CCN4CCCCC4)ccc3n2)c2cc(Br)ccc21 | < 7 µg/mL

Which measured MIC value corresponds to NCC1CCCC(CNC(=O)c2cc(-c3c[nH]c4ccc(Br)cc34)nc3cc(I)ccc23)C1 (stereo not shown) ?
< 7 µg/mL

Which measured MIC value corresponds to NCCNC(=O)c1cc(-c2c[nH]c3ccc(Br)cc23)nc2cc(Cl)c(I)cc12 ?
< 7 µg/mL

Which measured MIC value corresponds to CCOC(=O)n1cc(-c2cc(C(=O)NCc3cccc(CN)c3)c3cc(I)ccc3n2)c2cc(Br)ccc21 ?
> 25 µg/mL

Which measured MIC value corresponds to NCc1ccc(CNC(=O)c2cc(-c3c[nH]c4ccc(Br)cc34)nc3c(C#CCN4CC=CCC4)cccc23)cc1 ?
< 7 µg/mL

Which measured MIC value corresponds to NCC1CCC(CNC(=O)c2cc(-c3c[nH]c4ccc(Br)cc34)nc3c(Cl)c(Cl)ccc23)CC1 (stereo not shown) ?
< 7 µg/mL

Which measured MIC value corresponds to Cn1cc(-c2cc(C(=O)NCc3cccc(CN)c3)c3ccccc3n2)c2cc(Br)ccc21 ?
< 7 µg/mL

Which measured MIC value corresponds to NCCNC(=O)c1cc(-c2c[nH]c3ccc(Br)cc23)nc2cc(Cl)cc(Cl)c12 ?
< 7 µg/mL

Which measured MIC value corresponds to NCc1ccc(CNC(=O)c2cc(-c3c[nH]c4ccc(Br)cc34)nc3ccc(C#CCN4CC=CCC4)cc23)cc1 ?
< 7 µg/mL

----------
test system: methicillin-resistant Staphylococcus aureus (MRSA); assay: Determination of MIC values (BHI broth, 96 well microtiter plate); assay type: cell-based; conditions: Staphylococcus aureus, MRSA; BHI broth, overnight 37° C.; read-out: MIC MRSA
Readings of MIC for the listed molecules

Known results for molecules:
- NCc1ccc(CNC(=O)c2cc(-c3c[nH]c4ccc(Br)cc34)nc3c(C#CCN4CCCCC4)cccc23)cc1: < 25 µg/mL
- NCc1ccc(CNC(=O)c2cc(-c3c[nH]c4ccc(Br)cc34)nc3cc(C#CCN4CC=CCC4)ccc23)cc1: < 7 µg/mL
- Cc1cccc2c(-c3ccc4cc(Cl)ccc4n3)cn(C)c12: < 25 µg/mL
- Cn1cc(-c2ccc3cc(Cl)ccc3n2)c2cc(O)ccc21: < 7 µg/mL
- NCc1ccc(CNC(=O)c2cc(-c3c[nH]c4ccc(Br)cc34)nc3cc(Cl)c(C#CCNCCc4ccc(Cl)cc4)cc23)cc1: < 25 µg/mL
- CC(=O)Oc1cccc2[nH]cc(-c3cc(Cl)c4ccccc4n3)c12: < 7 µg/mL

Which measured MIC value corresponds to Cn1cc(-c2cc(C(=O)NCCN)c3cc(I)ccc3n2)c2cc(Br)ccc21 ?
< 7 µg/mL

Which measured MIC value corresponds to Cc1[nH]c2ccc(Cl)cc2c1-c1ccc2cc(Cl)ccc2n1 ?
< 7 µg/mL

Which measured MIC value corresponds to NCc1ccc(CNC(=O)c2cc(-c3c[nH]c4ccc(Br)cc34)nc3c(F)cccc23)cc1 ?
< 7 µg/mL

----------
Readings of MIC for the listed compounds
System: Streptococcus pneumoniae
Assay: Determination of MIC values (BHI broth, 96 well microtiter plate)
Format: cell-based
Conditions: Streptococcus pneumoniae; S. pneu; BHI broth, overnight 37° C.; read-out: MIC S. pneu
Protocol: Stock solutions of compounds are prepared with a concentration of 10 mg/mL. These solutions are then diluted 1:4 to give a concentration of 2.5 mg/mL. The compounds are then serially diluted 1:2 for 6 iterations. The concentrations made for each compound are 2.5, 1.25, 0.625, 0.3125, 0.156, 0.078, and 0.039 mg/mL. A control sample (no compound) is run along with each compound tested. All dilutions are made in DMSO. […]

Known results for compounds:
- CCOc1cc(-c2cn(C(=O)OC(C)(C)C)c3ccc(Br)cc23)nc2ccc(I)cc12: > 25 µg/mL
- Cc1[nH]c2ccccc2c1-c1cc(Cl)c2ccccc2n1: < 7 µg/mL
- Cc1cccc2c(-c3ccc4cc(Cl)ccc4n3)cn(C)c12: < 7 µg/mL
- Cn1cc(-c2cc(C(=O)NCCN)c3cc(Cl)ccc3n2)c2cc(Br)ccc21: < 7 µg/mL

Which measured MIC value corresponds to Cn1cc(-c2cc(C(=O)NCc3ccc(CN)cc3)c3cc(C#CCN4CCc5ccccc5C4)ccc3n2)c2cc(Br)ccc21 ?
> 25 µg/mL

Which measured MIC value corresponds to N#Cc1ccc2[nH]cc(-c3ccc4cc(Cl)ccc4n3)c2c1 ?
> 25 µg/mL
